Attribute: Percent Increase in Apparent Tipranavir
System: Anti-(H12)2
Experiment: Specificity of the immunoassay (cross-reactivity in human serum)
Type: binding, rabbit
Conditions: 10 μg/mL of crossreactant plus 5 μg/mL of tipranavir in human serum
Number in %, nothing else.

Worked cases, Percent Increase in Apparent Tipranavir given:
Cc1cccc(C)c1OCC(=O)N[C@@H](Cc1ccccc1)[C@@H](O)C[C@H](Cc1ccccc1)NC(=O)[C@H](C(C)C)N1CCCNC1=O = 0
CC(C)c1nc(CN(C)C(=O)N[C@H](C(=O)N[C@@H](Cc2ccccc2)C[C@H](O)[C@H](Cc2ccccc2)NC(=O)OCc2cncs2)C(C)C)cs1 = 0
Cc1c(O)cccc1C(=O)N[C@@H](CSc1ccccc1)[C@H](O)CN1C[C@H]2CCCC[C@H]2C[C@H]1C(=O)NC(C)(C)C = 0
O=C1Nc2ccc(Cl)cc2[C@@](C#CC2CC2)(C(F)(F)F)O1 = 0
CC(C)(C)NC(=O)[C@@H]1CN(Cc2cccnc2)CCN1C[C@@H](O)C[C@@H](Cc1ccccc1)C(=O)N[C@H]1c2ccccc2C[C@H]1O = 0

Reported Percent Increase in Apparent Tipranavir for CC(C)CN(C[C@@H](O)[C@H](Cc1ccccc1)NC(=O)O[C@H]1CCOC1)S(=O)(=O)c1ccc(N)cc1 was 0

Reported Percent Increase in Apparent Tipranavir for CC(C)(C)NC(=O)[C@@H]1C[C@@H]2CCCC[C@@H]2CN1C[C@@H](O)[C@H](Cc1ccccc1)NC(=O)[C@H](CC(N)=O)NC(=O)c1ccc2ccccc2n1 was 0
